Protocol: soluble fraction after stress (log2 fold change); higher = more stays soluble; pooled small domains, quantitative proteomics
Run conditions: stress: 50 degC
Assignment: determine reported soluble fraction (log2) for the given sequences.
Numbers only.

Example sequences with recorded soluble fraction (log2):
| Input sequence | Assay value |
| --- | --- |
| HMTNPPTPADTLFNTVRGVLQSILKSPMKDTEVASALNVSKAQARSWLQRLSDEGLIEKRKNPTAYVL | -0.238 |
| HMDPPYKDKNLHELLLKINNLNILKKDSVIILHRHKKQKEIFPSNFKIIEQKQYGISKIIFLTVL | 0.00254 |
| HMVMNYKKIGKKIADRRILLGITQEELAEKVDSSANYISNIETGIKSGSLIFYIKVANELKLSLDFLFSDE | -0.893 |
| HMQMEISQRIKLERQTLKWTQEELADKIFVSKRTISNWETGRTVPDIESVLRLAKVFHVSLEDLLL | -4.57 |

Batch: soluble fraction (log2) for all items listed.
1. HMKGLDAAVVDLFKSKGASIVFAGNRLSLSGEVADQATKDELLAKAKAILASLGASVSLDDKLMVKGAKAS
2. HMRPEVALSSRELEILEALATGKSNKELAQRLFISEATVKTHLIHIYQKLGVDTRTAAVTVARERKL
3. HMTEYFTIESQEGERIDRYLSEELEDKSRSYIQKLIRDGHVLVDGKTVKAGYRLVAGDNIAITLPEI
4. HMTALPPNVSIDSDERRLLEAIGFDPVDMDVLARDGQFSSVDLFRLLVSLELKGLVENQHGAYQRL

(A)
1. 0.0298
2. -1.52
3. -0.0879
4. -1.31

* * *

Protocol: soluble fraction after stress (log2 fold change); higher = more stays soluble; pooled small domains, quantitative proteomics
Run conditions: stress: 50 degC
Hi there, I'd appreciate the recorded soluble fraction (log2) for every entry that follows.
One number for each entry.

Examples with answers:
| Input sequence | Outcome measure | Assay value |
| --- | --- | --- |
| HMQKTVLAASVYERMKERIMDQYYPPGERLNIDALAIDLAVSPTPIREALARLAAERLITFEAYKGYRVSP | soluble fraction (log2) | -1.87 |
| HMKDMKISTQNILKELATNYPDQTAFRKNVIESTAKSMGYTGKDFYPMLTAETRVKIGTYDLSALLQTV | soluble fraction (log2) | -0.178 |
| HMIIENIVVEIKGEVYNPGLYILEQGSRINDLIELSGGFTKDANGTDLNLAKVLSDGEVIIVSKKG | soluble fraction (log2) | -0.2 |
| HMQSHGSRIWTDITGNFTREASFIELAEGKVTLQLTDGRRTIISFEILSKKDQEYVLDIGDS | soluble fraction (log2) | -2.11 |
| HMDNEIEQIVEDLNLTLSSLKYTKNQIESILPLIIKEIDDFKKKEKNISFENLLKLAMNHLDND | soluble fraction (log2) | -0.269 |

Batch request: soluble fraction (log2) for each of the following sequences.
1. HMTPTVEAAKEEVLRVLASAAPRGLTRTELEAEVSFRRTKLRDTLVELERIGRIDSVGRRGNATTYRLIG
2. HMASVRPVAPPDPKTHTRLTYRIRRGDTLERIGRRYRVSIAEIQAWNTLRDPGDILAGQRLVIWIPTS
3. HMGIVVDGTMTLEGVAERYGMSVGELARVIGVPPEYSNERLGRLRKSYEFEMDDIRIYIIQKQ
4. HMDDINVSNSKNIVPNVTGHTGSKAIPVLENLGLDVQYSGFGKVTNQSIPAGTRFKKGETIYLMLE

(A)
-0.615
-2.3
-1.31
0.0979
